Value source: patent US9408850B2

- Experimental Target: FLT3 cytoplasmic domain (GST fused protein) (Homo sapiens (Human))
- Sequence (P36888 564-993): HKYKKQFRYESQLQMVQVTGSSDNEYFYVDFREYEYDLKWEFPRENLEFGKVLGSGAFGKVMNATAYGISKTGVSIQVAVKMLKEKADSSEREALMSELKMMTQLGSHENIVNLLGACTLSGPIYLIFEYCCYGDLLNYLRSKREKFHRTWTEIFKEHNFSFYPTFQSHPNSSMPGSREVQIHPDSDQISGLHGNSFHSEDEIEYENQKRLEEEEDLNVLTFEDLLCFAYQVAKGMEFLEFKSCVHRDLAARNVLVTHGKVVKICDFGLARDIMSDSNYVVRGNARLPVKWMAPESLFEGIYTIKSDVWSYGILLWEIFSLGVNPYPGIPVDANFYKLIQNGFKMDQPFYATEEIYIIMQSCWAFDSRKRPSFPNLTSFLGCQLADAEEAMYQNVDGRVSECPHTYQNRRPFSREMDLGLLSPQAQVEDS
- Test Summary: Biochemical assay for inhibitors of FLT3 kinase activity
- Assay Context: 2 nM pre activated enzyme, 254 microM ATP, 60 minutes at r.t.
Counter-ions that a name gives are not always drawn.
Reported Metric: log10(IC50) (log10 of the value in nM)
// stored as log10 of IC50 expressed in nM

These recorded examples may help you get a feel for the data.
- Compound: "CN1CCN(c2ccc(C(=O)Nc3n[nH]c4cc(OCCOCc5ccncc5)ccc34)cc2)CC1 [Cpd. 35]"
  log10(IC50): 3.07
- Compound: "CN1CCN(c2ccc(C(=O)Nc3n[nH]c4cc(Oc5ccc(OCc6ccccc6)cc5)ccc34)cc2)CC1 [Cpd. 4]"
  log10(IC50): 2.99
- Compound: "CN(C)Cc1ccc(C(=O)Nc2n[nH]c3cc(OCCOCc4ccccc4)ccc23)cc1 [Cpd. 21]"
  log10(IC50): 2.02
- Compound: "CN1CCN(c2ccc(C(=O)Nc3n[nH]c4cc(Oc5ccccc5)ccc34)cc2)CC1 [Cpd. 2]"
  log10(IC50): 3.05
- Compound: "CN(C)CCCN(C)c1ccc(C(=O)Nc2n[nH]c3cc(OCCOCc4ccccc4)ccc23)cc1 [Cpd. 17]"
  log10(IC50): 1.79
- Compound: "CN1CCN(c2ccc(C(=O)Nc3n[nH]c4cc(OCC#Cc5ccccc5)ccc34)cc2)CC1 [Cpd. 7]"
  log10(IC50): 2.40
- Compound: "O=C(Nc1n[nH]c2cc(OCCOCc3ccccc3)ccc12)c1ccc(N2CC(N3CCCC3)C2)cc1 [Cpd. 28]"
  log10(IC50): 2.13
- Compound: "O=C(Nc1n[nH]c2cc(OCCOCc3ccccc3)ccc12)c1ccc(NC2CCOCC2)cc1 [Cpd. 26]"
  log10(IC50): 1.95
- Compound: "CN1CCN(c2cccc(C(=O)Nc3n[nH]c4cc(OCCOCc5ccccc5)ccc34)c2)CC1 [Cpd. 29, hydrochloride]"
  log10(IC50): 2.80

Alright, here's another compound for you.
## Task # lookup: log10(IC50) of CN1CCN(c2ccc(C(=O)Nc3n[nH]c4cc(OCCOCc5ccccc5)ccc34)c(F)c2)CC1 [Cpd. 38]
## Result 2.73

###

- Experimental Target: KIT cytoplasmic domain (GST fused protein) (Homo sapiens (Human))
- Test Summary: Biochemical assay for inhibitors of KIT kinase activity
- Assay Context: 4 nM pre activated enzyme, 4.4 microM ATP, 60 minutes at r.t.
pIC50: −log10 of the molar value.
Category key, based on recorded pIC50: low: < 6; moderate: ≥ 6 and < 7; high: ≥ 7

Here's what some known entries look like.
- Compound: "CN1CCN(c2ccc(C(=O)Nc3n[nH]c4cc(OCCOCc5ccc(F)cc5)ccc34)cc2)CC1"
  Class: "high"
- Compound: "CN1CCN(c2ccc(C(=O)Nc3n[nH]c4cc(Oc5ccccc5)ccc34)cc2)CC1"
  Class: "moderate"

## Task Categorize the following entry: `CN1CCN(c2ccc(C(=O)Nc3n[nH]c4cc(OC5CCN(Cc6ccccc6)CC5)ccc34)cc2)CC1`
## Result low

## Task Categorize the following entry: `CN1CCN(c2ccc(C(=O)Nc3n[nH]c4cc(Oc5cccc(F)c5)ccc34)cc2)CC1`
## Result moderate

###

For each of the compounds below, state its IC50.
- Experimental Target: KIT cytoplasmic domain (GST fused protein) (Homo sapiens (Human), UniProt P10721)
- Sequence (P10721 544-976): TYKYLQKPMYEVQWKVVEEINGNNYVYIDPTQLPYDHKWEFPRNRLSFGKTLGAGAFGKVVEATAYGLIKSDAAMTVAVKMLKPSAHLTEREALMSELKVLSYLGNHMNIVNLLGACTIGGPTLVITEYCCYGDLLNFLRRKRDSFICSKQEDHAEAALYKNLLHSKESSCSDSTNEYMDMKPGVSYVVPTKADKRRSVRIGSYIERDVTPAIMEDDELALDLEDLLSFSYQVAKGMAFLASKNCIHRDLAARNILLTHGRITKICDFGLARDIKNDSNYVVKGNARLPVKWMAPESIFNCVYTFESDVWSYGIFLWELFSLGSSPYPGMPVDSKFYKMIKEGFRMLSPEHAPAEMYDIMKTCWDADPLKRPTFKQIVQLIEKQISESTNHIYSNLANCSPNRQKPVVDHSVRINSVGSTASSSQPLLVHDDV
- Test Summary: Biochemical assay for inhibitors of KIT kinase activity
- Assay Context: 4 nM pre activated enzyme, 4.4 microM ATP, 60 minutes at r.t.
Counter-ions that a name gives are not always drawn.
Answers are plain numbers, in nM.

I have 3 compounds here; please give me IC50 for each one.
1. O=C(Nc1n[nH]c2cc(OCCOCc3ccccc3)ccc12)c1ccc(NC2CCOCC2)cc1
2. O=C(Nc1n[nH]c2cc(OCCOCc3ccccc3)ccc12)c1ccc(N2CC(N3CCCC3)C2)cc1
3. O=C(Nc1n[nH]c2cc(OCCOCc3ccccc3)ccc12)c1ccc(N2CCOCC2)cc1

## Result
1. 124
2. 306
3. 260

I have 7 compounds here; please give me IC50 for each one.
1. CN(C)C1CCN(c2ccc(C(=O)Nc3n[nH]c4cc(OCCOCc5ccccc5)ccc34)cc2)CC1
2. CN1CCN(c2ccc(C(=O)Nc3n[nH]c4cc(OCCOc5ccccc5)ccc34)cc2)CC1
3. CN(C)Cc1ccc(C(=O)Nc2n[nH]c3cc(OCCOCc4ccccc4)ccc23)cc1
4. CN1CCN(c2ccc(C(=O)Nc3n[nH]c4cc(OCCOCc5ccccc5)ccc34)c(F)c2)CC1
5. CN(C)CCN(C)c1ccc(C(=O)Nc2n[nH]c3cc(OCCOCc4ccccc4)ccc23)cc1
6. CN(c1ccc(C(=O)Nc2n[nH]c3cc(OCCOCc4ccccc4)ccc23)cc1)C1CC[N+](C)([O-])CC1 (stereo not shown)
7. CN1CCN(c2ccc(C(=O)Nc3n[nH]c4cc(OCCOCc5ccncc5)ccc34)cc2)CC1

## Result
1. 76
2. 956
3. 134
4. 613
5. 106
6. 180
7. 2370

I have 8 compounds here; please give me IC50 for each one.
1. CN1CCN(c2ccc(C(=O)Nc3n[nH]c4cc(OCc5cccc(Oc6ccccc6)c5)ccc34)cc2)CC1
2. CN1CCN(c2ccc(C(=O)Nc3n[nH]c4cc(Oc5cccc(OCc6ccccc6)c5)ccc34)cc2)CC1
3. COc1ccc(COCCOc2ccc3c(NC(=O)c4ccc(N5CCN(C)CC5)cc4)n[nH]c3c2)cc1
4. CN(C)CCCN(C)c1ccc(C(=O)Nc2n[nH]c3cc(OCCOCc4ccccc4)ccc23)cc1
5. CN1CCN(c2cccc(C(=O)Nc3n[nH]c4cc(OCCOCc5ccccc5)ccc34)c2)CC1 [Cpd. 29, hydrochloride]
6. CC(C)(C)OC(=O)N1CCN(c2ccc(C(=O)Nc3n[nH]c4cc(OCCOCc5ccccc5)ccc34)cc2)CC1
7. CN1CCC(Oc2ccc(C(=O)Nc3n[nH]c4cc(OCCOCc5ccccc5)ccc34)cc2)CC1
8. CN1CCN(c2ccc(C(=O)Nc3n[nH]c4cc(OCCOCc5ccccc5F)ccc34)cc2)CC1

## Result
2620
713
88
146
1080
1390
55
1400

## Task # lookup: IC50 of `CN1CCN(c2ccc(C(=O)Nc3n[nH]c4cc(OCCOCc5cccc(C(F)(F)F)c5)ccc34)cc2)CC1`
## Result 58

###

- Experimental Target: KIT cytoplasmic domain (GST fused protein) (Homo sapiens (Human), UniProt P10721)
- Test Summary: Biochemical assay for inhibitors of KIT kinase activity
- Assay Context: 4 nM pre activated enzyme, 4.4 microM ATP, 60 minutes at r.t.
Reported Metric: IC50

These recorded examples may help you get a feel for the data.
- Compound: "CN1CCN(c2ccc(C(=O)Nc3n[nH]c4cc(OCCOCc5ccc(C(F)(F)F)cc5)ccc34)cc2)CC1"
  Experimental Target: "KIT cytoplasmic domain (GST fused protein) (Homo sapiens (Human), UniProt P10721)"
  IC50: "< 0.05 µM"
- Compound: "CN(C)c1ccc(C(=O)Nc2n[nH]c3cc(OCc4ccccc4)ccc23)cc1 [Ref. Compound, reference compound]"
  Experimental Target: "KIT cytoplasmic domain (GST fused protein) (Homo sapiens (Human), UniProt P10721)"
  IC50: "> 10 µM"

Alright, here's another compound for you.
## Task # lookup: IC50 of `CN1CCN(c2ccc(C(=O)Nc3n[nH]c4cc(Oc5ccc(OCc6ccccc6)cc5)ccc34)cc2)CC1`
## Result > 10 µM
